Protocol description: Losartan plasma pharmacokinetics in dogs
Type: in vivo, dog
Recorded conditions: dog, plasma, po, 10 mg/kg
Readout: Cmax

Prompt line: Recorded Cmax for CCCCc1nc(Cl)c(CO)n1Cc1ccc(-c2ccccc2-c2nn[nH]n2)cc1 , please?
Response line: 509 ng/mL

====

Protocol description: Losartan plasma pharmacokinetics in dogs
Format: in vivo, dog
Recorded conditions: dog, plasma, po, 2.5 mg/kg
Readout: AUC(0-t) (ng·h/mL)
Output spec: scalar in ng·h/mL, unitless text.

Prompt line: AUC(0-t) lookup needed for CCCCc1nc(Cl)c(CO)n1Cc1ccc(-c2ccccc2-c2nn[nH]n2)cc1 , thanks.
Response line: 303

====

Protocol description: Losartan plasma pharmacokinetics in dogs
Assay type: in vivo, dog
Recorded conditions: dog, plasma, po, 10 mg/kg
Readout: AUC(0-t) (ng·h/mL)
Value expressed in ng·h/mL; do not type the unit.

Prompt line: Value lookup for AUC(0-t); key = CCCCc1nc(Cl)c(CO)n1Cc1ccc(-c2ccccc2-c2nn[nH]n2)cc1
Response line: 1580

====

Protocol description: Losartan plasma pharmacokinetics in dogs
Format: in vivo, dog
Recorded conditions: dog, plasma, po, 2.5 mg/kg
Readout: Cmax
Write the figure, then the unit, nothing else.

Prompt line: What value of Cmax has been reported for the following molecule? CCCCc1nc(Cl)c(CO)n1Cc1ccc(-c2ccccc2-c2nn[nH]n2)cc1
Response line: 76.7 ng/mL
